Each recorded value in this set is attributed to patent US5047228A.

Assignment: determine reported Distribution Coefficient Butanol/Buffer pH 7.6 for the given molecules.
# assayNotes: Distribution coefficient butanol/buffer pH 7.6
# Type: physicochemical
One number for each entry.

Solved cases below.
# input Given the molecule CC(=O)Nc1c(I)c(C(=O)N[C@H]2C(O)O[C@H](CO)[C@@H](O)[C@@H]2O)c(I)c(N(C)C(C)=O)c1I (stereo partly shown) [A, reference compound] , what is its reported Distribution Coefficient Butanol/Buffer pH 7.6?
# output 0.259

# input Quick check: Distribution Coefficient Butanol/Buffer pH 7.6 of CNC(=O)c1c(I)c(C(=O)NC(CO)C(O)CO)c(I)c(C(=O)NC(CO)C(O)CO)c1I (stereo not shown) ?
# output 0.065

# input Which Distribution Coefficient Butanol/Buffer pH 7.6 is listed for CN(C)C(=O)c1c(I)c(C(=O)NCC(O)CO)c(I)c(C(=O)NCC(O)CO)c1I (stereo not shown) ?
# output 0.171

# input Could you tell me which Distribution Coefficient Butanol/Buffer pH 7.6 is on file for CN(CC(O)CO)C(=O)c1c(I)c(C(=O)N(C)CC(O)CO)c(I)c(C(=O)N(C)CC(O)CO)c1I (stereo not shown) ?
# output 0.064

Your task in this section: give Distribution Coefficient Butanol/Buffer pH 7.6 for each listed record.
1. O=C(c1c(I)c(C(=O)N(CCO)CCO)c(I)c(C(=O)N(CCO)CCO)c1I)N(CCO)CCO
2. CN(CC(O)CO)C(=O)c1c(I)c(C(N)=O)c(I)c(C(=O)N(C)CC(O)CO)c1I (stereo not shown)

# output
0.131
0.074

* * *

For each of the compounds below, state its Iodine Content.
# assayNotes: Iodine content
# Assay type: physicochemical
Numbers only, in %.

Below, each entry is followed by its recorded Iodine Content result.
# input What value of Iodine Content has been reported for the following compound? CN(CC(O)CO)C(=O)c1c(I)c(C(=O)N(C)CC(O)CO)c(I)c(C(=O)N(C)CC(O)CO)c1I (stereo not shown) [B]
# output 45

# input Name the recorded Iodine Content for CC(=O)Nc1c(I)c(C(=O)N[C@H]2C(O)O[C@H](CO)[C@@H](O)[C@@H]2O)c(I)c(N(C)C(C)=O)c1I (stereo partly shown) [A, reference compound] .
# output 48

# input Look at this compound and give its reported Iodine Content. O=C(c1c(I)c(C(=O)N(CCO)CCO)c(I)c(C(=O)N(CCO)CCO)c1I)N(CCO)CCO [C]
# output 45

# input Entry under review: CN(CC(O)C(O)C(O)C(O)CO)C(=O)c1c(I)c(C(=O)N(C)CC(O)C(O)C(O)C(O)CO)c(I)c(C(=O)N(C)CC(O)C(O)C(O)C(O)CO)c1I (stereo not shown) [E] . Reported Iodine Content?
# output 34

# input May I ask what Iodine Content has been recorded for CN(C)C(=O)c1c(I)c(C(=O)NCC(O)CO)c(I)c(C(=O)NCC(O)CO)c1I (stereo not shown) [F] ?
# output 50

# input Tell me the measured Iodine Content of CN(CC(O)CO)C(=O)c1c(I)c(C(N)=O)c(I)c(C(=O)N(C)CC(O)CO)c1I (stereo not shown) [D] , please.
# output 50

Moving on to the next compound.
# input Form field: reported Iodine Content of CNC(=O)c1c(I)c(C(=O)NC(CO)C(O)CO)c(I)c(C(=O)NC(CO)C(O)CO)c1I (stereo not shown) [G]
# output 47
